Where do these numbers come from? They come from PubChem BioAssay (NCI).

# Test system: SNB-75 CNS
# Method Notes: NCI-60 one-dose screen, 48 h (100 = growth as untreated, 0 = no growth, -100 = all killed)
# Condition Description: 10 µM unless noted
The panel holds about 83,000 compounds, 20% with a hit somewhere; the sample as a whole holds those more often.
Please mark met if the recorded growth is equal to or greater than 10%, and not met if it falls below.

Example entries and their recorded answers appear below.
Nc1nn2c(-c3cc4cc(Br)ccc4oc3=O)ccnc2c1N=Nc1ccc(Br)cc1; not met
Cn1cc(Nc2ncnc(-c3ccc(N4CCCC4)c(C#N)c3)n2)cn1; met
Nc1nn2c(-c3cc4cc(Br)ccc4oc3=O)ccnc2c1N=Nc1ccccc1; not met
COc1ccc(-c2nc3ccc(-c4nnc(SCC(=O)Nc5ccc(/C(C)=N\O)cc5)o4)cc3[nH]2)cc1; met
CN(C)c1nc(NCCNS(=O)(=O)c2ccc(C(=O)/C=C/c3ccc(Cl)cc3)cc2)nc(N2CCOCC2)n1; met
COc1ccc(-c2nc3ccc(-c4nnc(SCc5ccccc5)o4)cc3[nH]2)cc1; not met

Request: Please tell me: is the molecule O=C(c1ccc(O)cc1)C1[C@H](c2ccc(Cl)cc2)[C@@H](c2ccccc2)NC12C(=O)Nc1ccccc12 (some centres undefined) at or over 10% in terms of growth?
Result: met

Request: Can COc1ccc([C@H]2C(C(=O)c3ccc(Cl)cc3)C3(N[C@@H]2c2ccccc2)C(=O)Nc2ccccc23)cc1 (some centres undefined) be said to have growth at or above 10%?
Result: met

Request: Does growth meet or surpass 10% for Cc1ccc(C(C(=O)NC2CCCCC2)N(Cc2ccccc2Cl)C(=O)c2ccc(CN3CCOCC3)o2)o1 (centres undefined) ?
Result: met

Request: Does the molecule COC(=O)c1cc(C(C)=O)n2c3ccccc3c3ccccc3c12 have recorded growth that is 10% or more?
Result: not met

Request: Entry COc1cccc(-c2ccc(/C=N/NC(=O)c3[nH]c4ccc(Br)cc4c3-c3ccccc3)s2)c1 : is its growth no less than 10%?
Result: met

Request: Does N#Cc1cc(-c2ccnc(Nc3ccc(N4CCN(C5COC5)CC4)cc3)n2)ccc1N1CCCC1 have a reported growth of at least 10%?
Result: met

====

# System: A498 renal
# Method Notes: NCI-60 one-dose screen, 48 h (100 = growth as untreated, 0 = no growth, -100 = all killed)
# Condition Description: 10 µM unless noted
The panel holds about 83,000 compounds, 20% with a hit somewhere; the sample as a whole holds those more often.
Metric: growth (%)
Lab book: enter the figure in %, no units written.

Request: Field request: growth | item: S=C(Nc1ccccc1)Nc1ccc(OCc2nc3ccc(Cl)cc3[nH]2)cc1
Result: 110

Request: Which growth is listed for S=C(NCCc1ccccc1)Nc1ccc(OCc2nc3ccc(Cl)cc3[nH]2)cc1 ?
Result: 95.6

Request: Sample COc1cccc(NC(=O)c2ccc(NC(=O)CCl)s2)c1 — what was its growth?
Result: 108

Request: Quick one: growth of CCCCCCCCc1ccc(C(=O)Nc2cccc(O)c2)cc1 ?
Result: 115

Request: Endpoint output: growth of COc1ccc2[nH]c(=O)c(CSc3ccccc3Nc3nccc(-c4ccc5c(c4)OCO5)n3)cc2c1 . Value?
Result: 107

Request: Value lookup for growth; key = O=C1c2cccc3c(N4CCN(Cc5ccccc5)CC4)ccc(c23)C(=O)N1c1cccc(-c2nn(-c3ccccc3)cc2-c2nc3ccccc3s2)c1
Result: 125

Request: What measured growth goes with COc1cc(/C=C/C(=O)c2cnn(-c3cc(=O)[nH]c4ccc(Cl)cc34)c2C)cc(OC)c1OC ?
Result: -21.5

Request: Which measured growth value corresponds to O=CNc1cccc(-n2cnc3cc(-c4ccc(O)cc4)ccc32)c1 ?
Result: 147

Request: Quick one: growth of Cc1nc(N)ncc1-c1ccc2ncnc(N3CCc4cc(F)c(Cl)cc43)c2c1 ?
Result: 25.3
